- System under test: human recombinant 15-PGDH (Homo sapiens, UniProt P15428)
- Sequence (P15428 1-266): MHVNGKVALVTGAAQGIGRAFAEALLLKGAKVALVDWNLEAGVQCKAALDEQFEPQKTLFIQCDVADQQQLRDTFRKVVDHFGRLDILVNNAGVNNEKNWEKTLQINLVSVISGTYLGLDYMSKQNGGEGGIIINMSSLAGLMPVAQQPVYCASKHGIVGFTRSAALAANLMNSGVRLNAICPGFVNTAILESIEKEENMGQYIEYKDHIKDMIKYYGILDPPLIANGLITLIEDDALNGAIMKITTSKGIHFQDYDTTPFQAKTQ
- Protocol text: Recombinant 15-PGDH enzymatic inhibition assay (PGDH-Lumi, NADH signal)
- Measurement conditions: recombinant 15-PGDH; 15 min pre-incubation, 60 min reaction with PGE2 and NAD+, NADH signal
Result type: pIC50
Recall that pIC50 is obtained by taking minus log10 of the concentration measured in molar.

Request: Specify reported pIC50 for the compound shown: Cn1cc2cc(-c3cnc4sc([C@@H](O)C5CC(F)(F)C5)cc4c3)cnc2n1 (single isomer, unassigned) [Compound B77S]
Result: 6.81

Request: Specify reported pIC50 for the compound shown: Cn1cc2cc(-c3ccc4ccc([C@@H](O)C5CC(F)(F)C5)cc4n3)cnc2n1 (single isomer, unassigned) [Compound D1S]
Result: 8.93

Request: Specify reported pIC50 for the compound shown: CCn1cc2cc(-c3ccc4cc(C5(O)CC(F)(F)C5)sc4n3)cnc2n1 [Compound C32]
Result: 9.43

Request: Specify reported pIC50 for the compound shown: CO[C@]1(C(F)(F)F)C[C@@](O)(c2cc3cnc(-c4cnc5nn(C)cc5c4)nc3s2)C1 (single isomer, unassigned) [Compound C113C]
Result: 8.85
